- Assay info: fu,PL from membrane affinity to PL-covered silica beads, PC
- Assay type: in vitro ADME
- Condition label: silica beads covered with phosphatidylcholine (PC), Transil; beads coated with pure PC, 15 min incubation; read-out: fu,PC Geomean
Endpoint: fraction unbound at 15 min

Compound | Endpoint result
CCN(CC)CCCC(C)Nc1ccnc2cc(Cl)ccc12 (centres unmarked) | 0.0014

A = COCCc1ccc(OCC(O)CNC(C)C)cc1 (centres unmarked)
B = CC[C@H](C)C(=O)O[C@H]1C[C@@H](C)C=C2C=C[C@H](C)[C@H](CC[C@@H]3C[C@@H](O)CC(=O)O3)[C@H]21
C = CCC(C)(C)C(=O)O[C@H]1C[C@@H](C)C=C2C=C[C@H](C)[C@H](CC[C@@H]3C[C@@H](O)CC(=O)O3)[C@H]21
D = Cc1cccc(C)c1OCC(=O)N[C@@H](Cc1ccccc1)[C@@H](O)C[C@H](Cc1ccccc1)NC(=O)[C@H](C(C)C)N1CCCNC1=O
E = OC(Cn1cncn1)(Cn1cncn1)c1ccc(F)cc1F
Returns the items ordered by fraction unbound at 15 min, from maximum to minimum. Could you list the labels in the order requested?
E, A, C, D, B

====

- Assay info: fu,cell by equilibrium dialysis of cell homogenate, primary human hepatocytes
- Format: in vitro ADME
- Condition label: primary human hepatocyte homogenate, dialysis 4 h 37°C, 10 million cells/mL homogenate, read-out: fu,HH Geomean
Endpoint: fraction unbound at 4 h, 0.5 μM

Look over these answered cases.
Compound | Endpoint | Endpoint result
CC[C@H](C)C(=O)O[C@H]1C[C@@H](C)C=C2C=C[C@H](C)[C@H](CC[C@@H]3C[C@@H](O)CC(=O)O3)[C@H]21 | fraction unbound at 4 h, 0.5 μM | 0.0013
COc1ccccc1Oc1c(NS(=O)(=O)c2ccc(C(C)(C)C)cc2)nc(-c2ncccn2)nc1OCCO | fraction unbound at 4 h, 0.5 μM | 0.0337
CCCNC(=O)NS(=O)(=O)c1ccc(Cl)cc1 [Chlorpropamide] | fraction unbound at 4 h, 0.5 μM | 0.944

I = CCOc1nc2cccc(C(=O)O)c2n1Cc1ccc(-c2ccccc2-c2nnn[nH]2)cc1
II = Cc1cccc(C)c1OCC(=O)N[C@@H](Cc1ccccc1)[C@@H](O)C[C@H](Cc1ccccc1)NC(=O)[C@H](C(C)C)N1CCCNC1=O
III = CCN(CC)CCCC(C)Nc1ccnc2cc(Cl)ccc12 (centres unmarked)
IV = CCOc1cc(CC(=O)N[C@@H](CC(C)C)c2ccccc2N2CCCCC2)ccc1C(=O)O [Repaglinide]
V = Nc1ccc(/N=N/c2ccccc2)c(N)n1
Returns the items ordered by fraction unbound at 4 h, 0.5 μM, from maximum to minimum. Could you list the labels in the order requested?
I, III, IV, II, V
(I: 0.247, III: 0.0824, IV: 0.0097, II: 0.0044, V: 0.0014)

====

- Assay info: fu,cell by equilibrium dialysis of cell homogenate, HEK293
- Format: in vitro ADME
- Condition label: human, dialysis 4 h 37°C, 10 million cells/mL homogenate, read-out: fu,HEK293 Geomean
Endpoint: fraction unbound at 4 h, 0.5 μM

Look over these answered cases.
Compound | fraction unbound at 4 h, 0.5 μM
Nc1ccc(/N=N/c2ccccc2)c(N)n1 [Phenazopyridine] | 0.0208
CCOc1cc(CC(=O)N[C@@H](CC(C)C)c2ccccc2N2CCCCC2)ccc1C(=O)O [Repaglinide] | 0.0312
COc1ccc2[nH]c([S+]([O-])Cc3ncc(C)c(OC)c3C)nc2c1 (centres unmarked) [Omeprazole] | 0.463

1 = OC(Cn1cncn1)(Cn1cncn1)c1ccc(F)cc1F [Fluconazole]
2 = CCC(C)(C)C(=O)O[C@H]1C[C@@H](C)C=C2C=C[C@H](C)[C@H](CC[C@@H]3C[C@@H](O)CC(=O)O3)[C@H]21 [Simvastatin]
Hey, which is lower on measured fraction unbound at 4 h, 0.5 μM, 1 or 2 ? Let me know the label of the one you choose.
2
(2: 0.0015, 1: 0.1)

====

- Assay info: fu,PL from membrane affinity to PL-covered silica beads, PS
- Type: in vitro ADME
- Condition label: silica beads covered with phosphatidylserine (PS), Transil; beads coated with pure PS, 15 min incubation; read-out: fu,PS Geomean
Endpoint: fraction unbound at 15 min

Look over these answered cases.
Compound | fraction unbound at 15 min
COc1ccc([C@@H]2Sc3ccccc3N(CCN(C)C)C(=O)[C@@H]2OC(C)=O)cc1 [Diltiazem] | 0.0016
CC(C)n1c(/C=C/C(O)CC(O)CC(=O)O)c(-c2ccc(F)cc2)c2ccccc21 (centres unmarked) [Fluvastatin] | 0.0034
CCN(CC)CCCC(C)Nc1ccnc2cc(Cl)ccc12 (centres unmarked) [Chloroquine] | 0.0006
Cn1c(=O)c2c(ncn2C)n(C)c1=O [Caffeine] | 0.0025

P = Nc1ccc(/N=N/c2ccccc2)c(N)n1 [Phenazopyridine]
Q = Cc1cccc(C)c1OCC(=O)N[C@@H](Cc1ccccc1)[C@@H](O)C[C@H](Cc1ccccc1)NC(=O)[C@H](C(C)C)N1CCCNC1=O [Lopinavir]
R = OC(Cn1cncn1)(Cn1cncn1)c1ccc(F)cc1F [Fluconazole]
S = COC(=O)CCc1ccc(OCC(O)CNC(C)C)cc1 (centres unmarked) [Esmolol]
Order the entries by their reported fraction unbound at 15 min, beginning at the minimum. Could you list the labels in the order requested?
P, Q, S, R
(P: 0.0006, Q: 0.0011, S: 0.0019, R: 0.0045)

====

- Assay info: fu,PL from membrane affinity to PL-covered silica beads, PE
- Format: in vitro ADME
- Condition label: beads coated with pure PE, 15 min incubation; read-out: fu,PE Geomean
Endpoint: fraction unbound at 15 min

Look over these answered cases.
Molecule | fraction unbound at 15 min
CCCNC(=O)NS(=O)(=O)c1ccc(Cl)cc1 [Chlorpropamide] | 0.0109
CC[C@H](C)C(=O)O[C@H]1C[C@@H](C)C=C2C=C[C@H](C)[C@H](CC[C@@H]3C[C@@H](O)CC(=O)O3)[C@H]21 | 0.0011
COCCc1ccc(OCC(O)CNC(C)C)cc1 (stereo not shown) | 0.0099

1 = CC(C)n1c(/C=C/C(O)CC(O)CC(=O)O)c(-c2ccc(F)cc2)c2ccccc21 (stereo not shown)
2 = CCN(CC)CCCC(C)Nc1ccnc2cc(Cl)ccc12 (stereo not shown)
fraction unbound at 15 min comparison. Which is larger, 1 or 2 ? Let me know the label of the one you choose.
1
(1: 0.0067, 2: 0.0032)

====

- Assay info: fu,cell by equilibrium dialysis of cell homogenate, HL60
- Format: in vitro ADME
- Condition label: human, dialysis 4 h 37°C, 10 million cells/mL homogenate, read-out: fu,HL60 Geomean
Endpoint: fraction unbound at 4 h, 0.5 μM

Compound | Endpoint result
CCOc1nc2cccc(C(=O)O)c2n1Cc1ccc(-c2ccccc2-c2nnn[nH]2)cc1 [Candesartan] | 0.205

P = COc1ccc([C@@H]2Sc3ccccc3N(CCN(C)C)C(=O)[C@@H]2OC(C)=O)cc1 [Diltiazem]
Q = CCOc1cc(CC(=O)N[C@@H](CC(C)C)c2ccccc2N2CCCCC2)ccc1C(=O)O [Repaglinide]
Hey, which is lower on measured fraction unbound at 4 h, 0.5 μM, P or Q ? Let me know the label of the one you choose.
Q
(Q: 0.0341, P: 0.206)

====

- Assay info: fu,cell by equilibrium dialysis of cell homogenate, Caco-2
- Type: in vitro ADME
- Condition label: human, Caco-2 cell homogenate, dialysis 4 h 37°C, 10 million cells/mL homogenate, read-out: fu,Caco-2 Geomean
- Description: fu,cell was measured in cassette-mode as previously described with minor modifications ([9]). […] The concentration in both dialysis chambers was quantified by extracting the compound with acetonitrile/water (60/40) containing internal standard. […] (3), assuming the Vcell to be equal to 6.5 μL/mg protein ([6],[10]). Protein content in the cell homogenates was determined at each experiment using the BCA Protein Assay Reagent Kit (Thermo Fisher Scientific Inc.).3 DP=1/Vcell
Endpoint: fraction unbound at 4 h, 0.5 μM

Compound | fraction unbound at 4 h, 0.5 μM
OC(Cn1cncn1)(Cn1cncn1)c1ccc(F)cc1F | 0.456
COc1ccc([C@@H]2Sc3ccccc3N(CCN(C)C)C(=O)[C@@H]2OC(C)=O)cc1 | 0.1
Cc1ccccc1N1C(=O)c2cc(S(N)(=O)=O)c(Cl)cc2NC1C (stereo not shown) | 0.133
CC[C@H](C)C(=O)O[C@H]1C[C@@H](C)C=C2C=C[C@H](C)[C@H](CC[C@@H]3C[C@@H](O)CC(=O)O3)[C@H]21 | 0.0024
CCN(CC)CCCC(C)Nc1ccnc2cc(Cl)ccc12 (stereo not shown) | 0.0777

A = CC(C)n1c(/C=C/C(O)CC(O)CC(=O)O)c(-c2ccc(F)cc2)c2ccccc21 (stereo not shown)
B = CCCNC(=O)NS(=O)(=O)c1ccc(Cl)cc1 [Chlorpropamide]
Hey, which is lower on measured fraction unbound at 4 h, 0.5 μM, A or B ? Let me know the label of the one you choose.
A

// provenance: paper PMC6838048
